Where do the numbers come from? From paper PMC7997032.

# Test system: MDCK cells
# Experiment Summary: MTT assay (cytotoxicity against MDCK cells)
# Type: cell-based, canine
# Measurement Conditions: MDCK cells, MTT 72h, 25uM
Readout: 570-650nm ave (mean MTT absorbance of 5 wells)

Given C=C[C@]1(C)CC[C@@H](C(C)(C)O)[C@H](c2ccc(O)cc2)C1 [Cyclo. D] , state its recorded 570-650nm ave (mean MTT absorbance of 5 wells).
1.096

Given C=C[C@]1(C)CC[C@H](C(=C)C)[C@@H](c2ccc(O)cc2)C1 [Cyclo. A] , state its recorded 570-650nm ave (mean MTT absorbance of 5 wells).
1.0477

Given C=C[C@]1(C)CC[C@@H](C(=C)C)[C@H](c2ccc(O)cc2)C1 [Cyclo. B] , state its recorded 570-650nm ave (mean MTT absorbance of 5 wells).
1.002

Given C=C[C@]1(C)CC[C@H](C(C)(C)O)[C@@H](c2ccc(O)cc2)C1 [Cyclo. C] , state its recorded 570-650nm ave (mean MTT absorbance of 5 wells).
1.064

Given C=C[C@@](C)(/C=C/c1ccc(O)cc1)CCC=C(C)C [(+)-(S)-baku.] , state its recorded 570-650nm ave (mean MTT absorbance of 5 wells).
1.2355
